# Test Details: Cytotoxicity assay
# Format: cell-based
# Particulars: human, uninfected (mock-infected) TZM-bl cells
Metric Name: CC50

CC50 reading for C[N+](C)(C)CCCn1c(=O)c2cc(Br)c3c(=O)n(CCC[N+](C)(C)C)c(=O)c4c5[nH]c6ccccc6[nH]c5c(c1=O)c2c34.[I-].[I-] : > 5 µM

What the record says about C[N+](C)(C)CCCn1c(=O)c2ccc3c(=O)n(CCC[N+](C)(C)C)c(=O)c4c5[nH]c6ccccc6[nH]c5c(c1=O)c2c34.[I-].[I-] : CC50 is > 5 µM

Entry CN(C)CCCn1c(=O)c2ccc3c(=O)n(CCCN(C)C)c(=O)c4c5[nH]c6cc(C(=O)O)ccc6[nH]c5c(c1=O)c2c34 ; CC50 = > 5 µM

For record CN(C)CCCn1c(=O)c2cc(Br)c3c(=O)n(CCCN(C)C)c(=O)c4c5[nH]c6ccc(C(=O)O)cc6[nH]c5c(c1=O)c2c34 the listed CC50 is > 5 µM
